Biological target: His-tagged KRAS G12D protein (Homo sapiens (Human), UniProt P01116, G12D)
Sequence (P01116 other isoform, or with tags, fused parts or gaps G12D): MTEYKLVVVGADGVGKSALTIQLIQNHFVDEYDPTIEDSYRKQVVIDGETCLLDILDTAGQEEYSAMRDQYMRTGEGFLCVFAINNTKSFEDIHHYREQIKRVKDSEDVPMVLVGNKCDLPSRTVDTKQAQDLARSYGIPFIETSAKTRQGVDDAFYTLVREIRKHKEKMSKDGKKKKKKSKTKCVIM
Experiment: KRAS G12D TR-FRET Assay
Type: binding
Conditions: TR-FRET; read-out: KRAS G12D Binding
pIC50: −log10 of the molar value. Counter-ions that a name gives are not always drawn.
This listing pairs compounds with measured pIC50.
metric: pIC50

compound="Fc1c2ncc3c(nc(OC[C@@]45CCCN4C[C@H](F)C5)nc13)N1CCO[C@@H](COCC[C@@H]3C[C@@H]3c3c(Cl)cc4[nH]ncc4c3-2)C1 [Example 392]" experimental_result=8.22
compound="Fc1c2ncc3c(nc(OC[C@@]45CCCN4C[C@H](F)C5)nc13)N1CCC[C@@H](Cc3nnc(o3)CCc3c(Cl)cc4[nH]ncc4c3-2)C1 [Example 391]" experimental_result=8.40
compound="OC1CCCCc2c(Cl)cc3[nH]ncc3c2-c2ncc3c(nc(OC[C@@]45CCCN4C[C@H](F)C5)nc3c2F)N2CCC[C@@H](C1)C2 (mixture of isomers) [Example 385, bis(2,2,2-trifluoroacetate) salt]" experimental_result=7.51
compound="Fc1c2ncc3c(nc(OC[C@@]45CCCN4C[C@H](F)C5)nc13)N1CCC[C@H](C1)Cn1ncc(n1)[C@@H]1C[C@@H]1c1c(Cl)cc3[nH]ncc3c1-2 (mixture of isomers) [Example 383]" experimental_result=7.89
compound="O=C1CCCCc2c(Cl)cc3[nH]ncc3c2-c2ncc3c(nc(OC[C@@]45CCCN4C[C@H](F)C5)nc3c2F)N2CC[C@H]3[C@@H](C2)N1CC3(F)F (single isomer, unassigned) [Example 402]" experimental_result=7.01
compound="Fc1c2ncc3c(nc(OC[C@@]45CCCN4C[C@H](F)C5)nc13)N1CCC[C@H](C1)c1cnc(o1)CCCc1c(Cl)cc3[nH]ncc3c1-2 [Example 387]" experimental_result=8.10
compound="O[C@H]1C[C@@H]2CN(C1)c1nc(OC[C@@]34CCCN3C[C@H](F)C4)nc3c(F)c(ncc13)-c1c(c(Cl)cc3[nH]ncc13)CCCc1nc2no1 (mixture of isomers) [Example 377]" experimental_result=8.30
compound="Fc1c2ncc3c(nc(OC[C@@]45CCCN4C[C@H](F)C5)nc13)N1CCOC[C@H](Cc3ncc(o3)CCc3c(Cl)cc4[nH]ncc4c3-2)C1 (single isomer, unassigned) [Example 375]" experimental_result=7.57
compound="Fc1c2ncc3c(nc(OC[C@@]45CCCN4C[C@H](F)C5)nc13)N1CCC[C@@H](C1)c1cnc(o1)CCCc1c(Cl)cc3[nH]ncc3c1-2 [Example 386]" experimental_result=5.43
compound="O[C@@H]1C[C@@H]2COCCCCc3c(Cl)cc4[nH]ncc4c3-c3ncc4c(nc(OC[C@@]56CCCN5C[C@H](F)C6)nc4c3F)N(C1)C2 [Example 406]" experimental_result=7.68
compound="O[C@]12C[C@@]3(CCCN(C3)c3nc(OC[C@@]45CCCN4C[C@H](F)C5)nc4c(F)c(ncc34)-c3c(c(Cl)cc4[nH]ncc34)CCc3cnc1o3)C2 [Example 396]" experimental_result=8.15
